From: PubChem BioAssay

- System: Sam68 (KHDRBS1)
- measurement.protocol: compounds binding KHDRBS1 protein – biochemical, small-molecule microarray, 635 nm fluorescence, primary screen (AID 1125);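 note: score merges 667 nm channel intensity with signal to noise over triplicate slides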
- cond: higher = more signal
measured.parameter: composite z-score

[
  {
    "compound": "O=C(NCC(O)CO)C1N=C(c2ccc(OCCCO)cc2)N(c2ccccc2)O1 (centres undefined)",
    "target.under.test": "Sam68 (KHDRBS1)",
    "experimental.value": 1
  },
  {
    "compound": "CCOC(=O)C1=CC[C@@H](c2ccc(OC)cc2)N(S(=O)(=O)c2ccc(C)cc2)[C@H]1c1ccc(C)cc1",
    "target.under.test": "Sam68 (KHDRBS1)",
    "experimental.value": 1.34
  },
  {
    "compound": "O=C1[C@@H]2[C@@H](CC(COc3ccccc3)=C([C@H](O)CCc3ccccc3)[C@@H]2CO)C(=O)N1Cc1ccccc1",
    "target.under.test": "Sam68 (KHDRBS1)",
    "experimental.value": 0.582
  },
  {
    "compound": "NC(=O)N1C(=O)C2C(C1=O)C1C=C(CCCO)C2C(C2CC2)N1Cc1sc2ccccc2c1Cl (centres undefined)",
    "target.under.test": "Sam68 (KHDRBS1)",
    "experimental.value": 1.15
  },
  {
    "compound": "[N-]=[N+]=NCc1ccccc1[C@@H]1OC(c2ccc(OCCCO)cc2)=N[C@]1(Cc1ccccc1N=[N+]=[N-])C(=O)O",
    "target.under.test": "Sam68 (KHDRBS1)",
    "experimental.value": 1.31
  },
  {
    "compound": "CC(C)C[C@@H]1NC(=O)[C@@H]2C[C@H](C(=O)NCCCCCCNC(=O)CS)[C@H](c3cccc(OCCO)c3)N2C1=O",
    "target.under.test": "Sam68 (KHDRBS1)",
    "experimental.value": 1.29
  },
  {
    "compound": "CN1C(=O)C2C=CC(C(O)c3ccc(-c4ccccc4)s3)N(NC(=O)OC(C)(C)C)C2C1=O (centres undefined)",
    "target.under.test": "Sam68 (KHDRBS1)",
    "experimental.value": 1.23
  },
  {
    "compound": "COC(=O)C(CC#Cc1ccc2c(c1)[C@]1(C(=O)N2)[C@H](C(=O)NC[C@H](O)c2ccccc2)[C@H]2C(=O)O[C@H](c3ccccc3)[C@H](c3ccccc3)N2[C@@H]1c1ccccc1OCCO)C(=O)OC",
    "target.under.test": "Sam68 (KHDRBS1)",
    "experimental.value": 1.25
  },
  {
    "compound": "COCCOC(=O)N1C(=O)[C@@]2(c3cc(C#CCC(C(=O)OC)C(=O)OC)ccc31)[C@H](C(N)=O)[C@H]1C(=O)O[C@H](c3ccccc3)[C@H](c3ccccc3)N1[C@@H]2c1ccc(O)cc1",
    "target.under.test": "Sam68 (KHDRBS1)",
    "experimental.value": 1.3
  },
  {
    "compound": "CN(C)CCCCNC(=O)[C@H]1C[C@H]2C(=O)N3CCC[C@H]3C(=O)N2[C@H]1c1cccc(OCCO)c1",
    "target.under.test": "Sam68 (KHDRBS1)",
    "experimental.value": 1.04
  },
  {
    "compound": "COC(=O)[C@@]1(Cc2ccccc2)N=C(c2ccc(OCCCO)cc2)O[C@H]1c1ccccc1CN=[N+]=[N-]",
    "target.under.test": "Sam68 (KHDRBS1)",
    "experimental.value": 1.2
  },
  {
    "compound": "COCCOC(=O)N1C(=O)[C@@]2(c3ccccc31)[C@H](c1ccc(O)cc1)N1[C@H](c3ccccc3)[C@H](c3ccccc3)OC(=O)[C@H]1[C@@H]2C(=O)N1CCCCCCC1",
    "target.under.test": "Sam68 (KHDRBS1)",
    "experimental.value": 1.3
  },
  {
    "compound": "NCCCCCCNC(=O)[C@@H]1C[C@@H]2C(=O)N3CCC[C@H]3C(=O)N2[C@@H]1c1cccc(OCCO)c1",
    "target.under.test": "Sam68 (KHDRBS1)",
    "experimental.value": 0.462
  },
  {
    "compound": "CN(C)CCCNC(=O)[C@@]1(Cc2ccccc2I)c2ccccc2C(=O)N(C2CCCCC2)[C@H]1c1ccc(CO)cc1",
    "target.under.test": "Sam68 (KHDRBS1)",
    "experimental.value": 1.31
  }
]

====

- measurement.protocol: JC-1 mitochondrial potential readout, lung cancer cells – cell-based, A549, JC-1 fluorescence, basal, 24 h, 100 nL, profiling panel (AID 1138);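 note: A549 lung adenocarcinoma cells under basal conditions with no added stimulus; test concentration not given here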
- cond: higher = more signal
measured.parameter: z-score

[
  {
    "molecule": "C=C(CCCC)/C(=C/C[C@@H](OC(C)=O)c1ccc(CO)o1)c1cnc2ccccc2c1",
    "experimental.value": -0.587
  },
  {
    "molecule": "O=C(O)[C@H](Cc1ccccc1)n1cc(C2(O)CCCCC2)nn1",
    "experimental.value": -0.141
  },
  {
    "molecule": "[N-]=[N+]=Nc1ccccc1C[C@@]1(C(=O)NCC(O)CO)N=C(c2ccc(OCCCO)cc2)O[C@@H]1c1ccccc1 (some centres undefined)",
    "experimental.value": 1
  },
  {
    "molecule": "CC(C)=C1C(=O)C(c2ccccc2)=C2CN3C(=O)N(CCc4ccccc4)C(=O)[C@]3(C)[C@H]21",
    "experimental.value": 1.77
  },
  {
    "molecule": "CC(C)N1C(=O)c2ccccc2[C@](C)(C(=O)NCC(F)(F)F)[C@@H]1c1ccc(CO)cc1",
    "experimental.value": 0.607
  },
  {
    "molecule": "O=C1c2ccccc2[C@@]2(Cc3ccccc3N(Cc3ccccc3)C2=O)[C@H](c2ccc(CO)cc2)N1Cc1ccccc1Cl",
    "experimental.value": -0.00887
  },
  {
    "molecule": "N#Cc1ccc(C(O)C2C=CC3C(=O)NC(=O)C3N2Nc2ccc(Cl)cc2Cl)cc1 (centres undefined)",
    "experimental.value": 1.28
  },
  {
    "molecule": "[N-]=[N+]=NCc1ccccc1[C@@H]1OC(c2ccc(OCCCO)cc2)=N[C@]1(Cc1ccccc1N=[N+]=[N-])C(=O)NCC(O)CO (some centres undefined)",
    "experimental.value": 0.637
  },
  {
    "molecule": "CCOC(=O)C1=CC[C@@H](c2ccccc2)N(S(=O)(=O)c2ccc(C)cc2)[C@H]1c1ccccc1I",
    "experimental.value": 1.27
  },
  {
    "molecule": "COCCOC(=O)N1C(=O)[C@@]2(c3cc(C#CCC(C(=O)OC)C(=O)OC)ccc31)[C@H](c1ccc(O)cc1)N1[C@H](c3ccccc3)[C@H](c3ccccc3)OC(=O)[C@H]1[C@@H]2C(=O)Nc1nc2ccccc2s1",
    "experimental.value": -2.1
  },
  {
    "molecule": "COCCn1c(C(=O)N(C)C)cc2c1C[C@H]1CN(C(=O)c3ccccc3)[C@@](Cc3ccc(OC)cc3)(C(=O)OC)[C@@H]21",
    "experimental.value": 1.66
  },
  {
    "molecule": "COCCCNC(=O)[C@@]1(CCC(=O)OC(C)(C)C)COC(c2ccc(OCCCO)cc2)=N1",
    "experimental.value": -0.274
  },
  {
    "molecule": "COC(=O)[C@@]1(Cc2ccc(F)cc2)[C@H]2c3cc(C(=O)N4CCCC4)n(Cc4ccccn4)c3C[C@H]2CN1C(=O)c1ccccc1",
    "experimental.value": -0.0238
  },
  {
    "molecule": "C=CCC(OC(C)=O)[C@@H]1[C@@H](N(Cc2cc3ccccc3o2)C(=O)c2cccc3ccccc23)c2cc(OCCCO)ccc2N1C(=O)c1ccc2ccccc2n1 (some centres undefined)",
    "experimental.value": -0.0913
  },
  {
    "molecule": "O=C1C[C@@](C(=O)NC2CC2)(c2ccc([N+](=O)[O-])cc2)[C@@H](c2ccc(CO)cc2)N1C1CCCCC1",
    "experimental.value": -0.282
  },
  {
    "molecule": "CC(C)OC(=O)CC(=O)CC(O)c1cccc([N+](=O)[O-])c1 (centres undefined)",
    "experimental.value": -0.428
  },
  {
    "molecule": "COc1cc(OC)c(C(O)C2C=CC3C(=O)N(c4ccccc4)C(=O)C3N2Nc2ccc(C(C)C)cc2)cc1Br (centres undefined)",
    "experimental.value": 0.568
  },
  {
    "molecule": "COc1ccc(C(=O)Nc2cccc(CN3C(=O)[C@@]4(O[C@@H](CC(=O)N5CCC[C@H]5CO)[C@H]([Si](C)(C)c5ccc(OC)cc5)[C@H]4C)c4ccccc43)c2)cc1",
    "experimental.value": 1.53
  },
  {
    "molecule": "CC(=O)c1ccc(C(O)C2C=CC3C(=O)N(c4ccccc4)C(=O)C3N2Nc2ccc(C(C)C)cc2)cc1 (centres undefined)",
    "experimental.value": 0.678
  },
  {
    "molecule": "CCCCC(=C=CC[C@H](O)c1ccc(CO)o1)CCO",
    "experimental.value": 0.164
  },
  {
    "molecule": "C=CCC(OC(C)=O)[C@@H]1[C@@H](N(Cc2cccc3ccccc23)C(=O)c2ccc(-c3ccccc3)cc2)c2cc(OCCCO)ccc2N1C(=O)Cc1ccc2ccccc2c1 (some centres undefined)",
    "experimental.value": 0.412
  },
  {
    "molecule": "O=C1O[C@@H](c2ccccc2)[C@@H](c2ccccc2)N2[C@@H](c3ccc(OCCO)cc3)[C@]3(C(=O)Nc4ccc(C#CC5(O)CCCCCC5)cc43)[C@@H](C(=O)Nc3nc4ccccc4s3)[C@H]12",
    "experimental.value": -2.12
  },
  {
    "molecule": "COc1ccc(C(O)C2C=CC3C(=O)NC(=O)C3N2Nc2ccc(Cl)cc2Cl)c2ccccc12 (centres undefined)",
    "experimental.value": -0.209
  },
  {
    "molecule": "COc1cc(C(O)C2C=CC3C(=O)N(c4ccccc4)C(=O)C3N2Nc2ccccc2)cc(OC)c1OC (centres undefined)",
    "experimental.value": -0.193
  },
  {
    "molecule": "C[C@]1(C(=O)O)c2ccccc2C(=O)N(Cc2cc(F)cc(C(F)(F)F)c2)[C@H]1c1ccc(CO)cc1",
    "experimental.value": -1.06
  },
  {
    "molecule": "CC(C)NC(=O)[C@@]1(C)c2ccccc2C(=O)N(Cc2ccccc2)[C@H]1c1ccc(CO)cc1",
    "experimental.value": 0.648
  },
  {
    "molecule": "COC(=O)C(CC#Cc1ccc2c(c1)[C@]1(C(=O)N2)[C@H](c2ccccc2OCCO)N2[C@H](c3ccccc3)[C@H](c3ccccc3)OC(=O)[C@H]2[C@@H]1C(=O)N1CCc2cc(OC)c(OC)cc2C1)C(=O)OC",
    "experimental.value": -0.668
  },
  {
    "molecule": "CCCCC(O)C1C=CC2C(=O)N(c3ccccc3)C(=O)C2N1Nc1ccccc1 (centres undefined)",
    "experimental.value": 0.656
  },
  {
    "molecule": "COc1ccc(C(=O)Nc2cccc(CN3C(=O)[C@]4(O[C@H](CC(=O)N5Cc6ccccc6C[C@H]5CO)[C@@H]([Si](C)(C)c5ccc(OC)cc5)[C@@H]4C)c4ccccc43)c2)cc1",
    "experimental.value": -0.806
  }
]
